Test: Half life in rat hepatocyte measured upto 120 mins by UPLC-MS/MS analysis
Format: ADME, cell-based
Conditions: hepatocytes
parameter_measured: half-life (min)
Answers are plain numbers, in min.

Exercise: Entry COC(=O)N[C@H](C(=O)N[C@@H](Cc1ccccc1)[C@H](CN(Cc1ccc(-c2ccccn2)cc1)NC(=O)[C@@H](NC(=O)OC)C(C)(C)C)OC(=O)OC(OC(=O)[C@@H](N)C(C)C)C(C)C)C(C)(C)C (stereo in doubt; 3s) has what half-life?
Key: 21

---

Please go through the items and note down their half-life.
Experiment: Aqueous stability of the compound in acetate buffer at pH 4 assessed as compound half life measured after 24 hrs by UPLC analysis
Assay type: physicochemical
Conditions: acetate buffer, pH 4
Give bare numbers, in days.

// batch mode: one half-life value per listed entry
1. COC(=O)N[C@H](C(=O)N[C@@H](Cc1ccccc1)[C@H](CN(Cc1ccc(-c2ccccn2)cc1)NC(=O)[C@@H](NC(=O)OC)C(C)(C)C)OC(=O)OC(OC(=O)[C@@H](N)Cc1ccccc1)C(C)C)C(C)(C)C (stereo in doubt; 3v)
2. COC(=O)N[C@H](C(=O)N[C@@H](Cc1ccccc1)[C@H](CN(Cc1ccc(-c2ccccn2)cc1)NC(=O)[C@@H](NC(=O)OC)C(C)(C)C)OC(=O)OC(OC(=O)[C@H](N)C(C)C)C(C)C)C(C)(C)C (stereo in doubt; 5i)
3. CN[C@H](C(=O)OC(OC(=O)O[C@@H](CN(Cc1ccc(-c2ccccn2)cc1)NC(=O)[C@@H](NC(=O)OC)C(C)(C)C)[C@H](Cc1ccccc1)NC(=O)[C@@H](NC(=O)OC)C(C)(C)C)C(C)C)C(C)C (stereo in doubt; 5e)

Key:
[4.18, 15.7, 15.7]
